Target: SUMO-conjugating enzyme UBC9 (Homo sapiens)
Experiment: inhibitors of in vitro SUMOylation cascade, primary screen, biochemical, HTRF, uHTS (AID 2006)
Conditions: HTRF SUMOylation assay, SAE1/SAE2 + UBC9, in vitro; at 35 µM
Among all 290,000 compounds or so, about 1,000 (0.34%) were called active. Rule as the data show it: active = inhibition above about 50% (passing the limit was not always enough); inconclusive = no clear call, values can overlap the other calls. Only a selection was taken, and actives are over-represented in it overall.
// allowed return values: True (active), False (inactive)

Request: GET /call?item= O=c1onc(-c2c(F)cccc2F)n1-c1ccccc1Cl returns the recorded outcome of this test.
Result: False

Request: GET /call?item= CCc1ccc(C(=O)NC(=S)Nc2ccccc2N2CCOCC2)cc1 returns the recorded outcome of this test.
Result: False

Request: GET /call?item= CCOC(=O)c1c(C)[nH]c(C(=O)NCc2ccccc2OC)c1C returns the recorded outcome of this test.
Result: False

Request: GET /call?item= CCOC(=O)c1c(C)[nH]c2c1-c1ccccc1C(=O)C2=O returns the recorded outcome of this test.
Result: True

Request: GET /call?item= O=C(CN1CCN(C(=S)NC2CCCC2)CC1)Nc1ccc(Oc2ccccc2)cc1 returns the recorded outcome of this test.
Result: False

Request: GET /call?item= CCn1cc(CN2CCN(CC(C)(C)C)C(CCO)C2)c2ccccc21 (stereo unspecified) returns the recorded outcome of this test.
Result: False

Request: GET /call?item= Cc1ccc2nc(-c3ccncc3)cc(C(=O)Nc3ccc(OC(F)F)cc3)c2c1 returns the recorded outcome of this test.
Result: True

Request: GET /call?item= O=C(c1cccnc1)N1CCN(S(=O)(=O)c2cccs2)CC1 returns the recorded outcome of this test.
Result: False

Request: GET /call?item= O=C(Nc1ccccc1Cl)Nn1cnnc1 returns the recorded outcome of this test.
Result: False

Request: GET /call?item= CCOC(=O)C1=C(c2ccc(OC)cc2)C(=O)c2ccccc2C1=O returns the recorded outcome of this test.
Result: False

Request: GET /call?item= Cc1cccc(OCC(O)Cn2c(N3CCCCC3)nc3c2c(=O)[nH]c(=O)n3C)c1 (stereo unspecified) returns the recorded outcome of this test.
Result: False

* * *

Molecular target: SUMO-conjugating enzyme UBC9 (Homo sapiens)
Assay: inhibitors of in vitro SUMOylation cascade, primary screen, biochemical, HTRF, uHTS (AID 2006)
Conditions: HTRF SUMOylation assay, SAE1/SAE2 + UBC9, in vitro; average of repeat tests; at 35 µM; stronger effect = higher value
Screen size: about 290,000 compounds; about 1,000 (0.34%) were called active. The full list was thinned out, with actives kept by preference.
property label: inhibition
Kindly report the value followed by its unit.

Request: Entry under review: CSc1nnc(SCc2nc3sc(C(=O)O)c(C)c3c(=O)[nH]2)s1 . Reported inhibition?
Result: 70.2%

Request: Entry under review: O=c1oc2cc(O)ccc2cc1-c1ccc(F)cc1 . Reported inhibition?
Result: 56%

Request: Entry under review: Cc1ccc(-c2nn(-c3ccccc3)cc2/C=C2\SC(=S)N(CCCCCC(=O)O)C2=O)o1 . Reported inhibition?
Result: 59.6%

Request: Entry under review: CC(C)(C)OC(=O)c1c(N)n(CCCN2CCCC2=O)c2nc3ccccc3nc12 . Reported inhibition?
Result: 40.3%

* * *

Target: SUMO-conjugating enzyme UBC9 (Homo sapiens) (UniProt P63279)
Sequence (P63279 whole entry, looked up): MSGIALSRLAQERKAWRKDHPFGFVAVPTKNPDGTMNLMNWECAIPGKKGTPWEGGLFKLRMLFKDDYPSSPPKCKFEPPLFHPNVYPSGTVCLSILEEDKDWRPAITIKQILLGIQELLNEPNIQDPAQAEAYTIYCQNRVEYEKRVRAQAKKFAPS
Assay: inhibitors of in vitro SUMOylation cascade, primary screen, biochemical, HTRF, uHTS (AID 2006)
Conditions: HTRF SUMOylation assay, SAE1/SAE2 + UBC9, in vitro; at 35 µM
About 1,000 (0.34%) of roughly 290,000 compounds were called active. Rule as the data show it: active = inhibition above about 50% (passing the limit was not always enough); inconclusive = no clear call, values can overlap the other calls. The entries come from a sample that favours actives as a whole.
// allowed return values: 1.0 for active, 0.0 for inactive

Request: GET /call?item= FC(F)(F)Oc1ccc(-c2cn3cccnc3n2)cc1 returns the recorded outcome of this test.
Result: 0.0

Request: GET /call?item= Cc1ccc(OCc2n[nH]c(=S)n2-c2ccc(C)cc2)cc1 returns the recorded outcome of this test.
Result: 0.0

Request: GET /call?item= Nc1ccc2nc3c(=O)[nH]c(=S)[nH]c3nc2c1 returns the recorded outcome of this test.
Result: 1.0

Request: GET /call?item= Cc1cc2nc3c(=O)n(Cc4ccccc4)c(=O)[nH]c3nc2cc1N returns the recorded outcome of this test.
Result: 1.0

Request: GET /call?item= O=C(Nc1ccc2nccnc2c1)c1ccco1 returns the recorded outcome of this test.
Result: 0.0

Request: GET /call?item= O=C(O)c1ccccc1NC(=O)c1ccccc1-c1ccccc1C(=O)O returns the recorded outcome of this test.
Result: 0.0

Request: GET /call?item= CC(C)(C)c1ccc(NC(=O)NCc2ccco2)cc1 returns the recorded outcome of this test.
Result: 0.0

Request: GET /call?item= Cc1ccc(NS(=O)(=O)c2ccc(-c3coc(C)n3)cc2)c(C)c1 returns the recorded outcome of this test.
Result: 0.0

Request: GET /call?item= CCOC(=O)c1ccc[n+](CC(=O)Nc2ccccc2OC(F)F)c1 returns the recorded outcome of this test.
Result: 0.0

Request: GET /call?item= COc1ccc(S(=O)(=O)Nc2ccc(O)c(Sc3nc4ccccc4s3)c2)cc1 returns the recorded outcome of this test.
Result: 0.0

Request: GET /call?item= Cc1cc(C)nc(N/N=C/c2c(CO)cnc(C)c2O)n1 returns the recorded outcome of this test.
Result: 0.0

Request: GET /call?item= COCCNC(=O)Nc1ccc2nc(-c3ccco3)c(-c3ccco3)nc2c1 returns the recorded outcome of this test.
Result: 1.0

Request: GET /call?item= Cc1ccccc1N1CCN(C2CCCN(C(=O)c3cn4c(C)cccc4n3)C2)CC1 (stereo unspecified) returns the recorded outcome of this test.
Result: 0.0

Request: GET /call?item= COC(=O)c1ccc(CNC(=O)c2ccc3oc(C(C)C)nc3c2)cc1 returns the recorded outcome of this test.
Result: 0.0

Request: GET /call?item= O=C(N/C(=C/c1ccc(Cl)cc1)C(=O)N1CCCCC1)c1ccco1 returns the recorded outcome of this test.
Result: 0.0

Request: GET /call?item= c1coc(-c2nc3nc4ccccc4n3nc2-c2ccco2)c1 returns the recorded outcome of this test.
Result: 1.0

Request: GET /call?item= N#Cc1ccc(Oc2ccc(C(F)(F)F)cc2NC(=O)c2ccc(F)cc2)cc1 returns the recorded outcome of this test.
Result: 0.0

Request: GET /call?item= CCOc1ccc(NC(=O)CN2CCN(CC(=O)Nc3ccc(OC)cc3)CC2)cc1 returns the recorded outcome of this test.
Result: 0.0

Request: GET /call?item= Cc1cccc(N=C2NC(=O)/C(=C/c3cn(C)c4ccccc34)S2)c1 returns the recorded outcome of this test.
Result: 0.0

Request: GET /call?item= CC(C)c1nnc(NC(=O)CCC(=O)N2CCN(c3cccc(Cl)c3)CC2)s1 returns the recorded outcome of this test.
Result: 0.0

Request: GET /call?item= COc1ccc(Cc2n[nH]c(=S)n2NC(=O)Nc2ccc(C)cc2)cc1 returns the recorded outcome of this test.
Result: 1.0

Request: GET /call?item= CCCCCC(=O)Nc1ccc(S(=O)(=O)Nc2ccc(Cl)nn2)cc1 returns the recorded outcome of this test.
Result: 0.0

Request: GET /call?item= Cc1ccc(C)c(NC(=O)NNC(=O)c2ccc3ccccc3c2O)c1 returns the recorded outcome of this test.
Result: 0.0

Request: GET /call?item= O=C1/C(=C/c2coc3ccc(O)cc3c2=O)SC(=S)N1c1ccccc1 returns the recorded outcome of this test.
Result: 1.0

Request: GET /call?item= COc1ccccc1NC(=O)CSc1nc2sc3c(c2c(=O)n1-c1ccccc1)CCN(C)C3 returns the recorded outcome of this test.
Result: 0.0

Request: GET /call?item= CC(=O)Nc1ccc(-c2cn3cccnc3n2)cc1 returns the recorded outcome of this test.
Result: 1.0

Request: GET /call?item= COc1ccc2oc(=O)c(C(=O)NCc3ccccn3)cc2c1 returns the recorded outcome of this test.
Result: 0.0

Request: GET /call?item= O=c1c(-c2ccccc2)coc2cc(O)ccc12 returns the recorded outcome of this test.
Result: 0.0

Request: GET /call?item= CC(C)(C)c1ccc(C(=O)NCCn2c(N)c(C#N)c3nc4ccccc4nc32)cc1 returns the recorded outcome of this test.
Result: 0.0

Request: GET /call?item= COCCNC(=O)c1ccc2nc(Cc3ccc(OC)c(OC)c3)oc2c1 returns the recorded outcome of this test.
Result: 0.0

Request: GET /call?item= O=c1[nH]c2c(c(=O)n1Cc1ccccc1)CCC2 returns the recorded outcome of this test.
Result: 0.0

Request: GET /call?item= Oc1ccccc1C1=NN(c2ccccc2)C(c2ccccc2)C1 (stereo unspecified) returns the recorded outcome of this test.
Result: 0.0

Request: GET /call?item= O=c1c(/C=N/O)coc2ccc(Cl)cc12 returns the recorded outcome of this test.
Result: 0.0

Request: GET /call?item= COc1cc(NC(=O)c2cncc(-c3ccc(C#N)cc3)c2)cc(C(=O)Nc2cccc(C(F)(F)F)c2)c1 returns the recorded outcome of this test.
Result: 1.0

Request: GET /call?item= O=C(Nc1ccccc1N1CCCC1)c1ccc2ccccc2c1 returns the recorded outcome of this test.
Result: 0.0

Request: GET /call?item= COc1ccc(NC(=O)CN(C)CC(=O)Nc2cccc(C(F)(F)F)c2)cc1 returns the recorded outcome of this test.
Result: 0.0

Request: GET /call?item= COc1ccccc1NC(=O)C1CCCN1S(=O)(=O)c1ccc(Cl)cc1 (stereo unspecified) returns the recorded outcome of this test.
Result: 0.0

Request: GET /call?item= O=C(O)CCCn1cc(NC(=O)COc2cccc(Cl)c2)cn1 returns the recorded outcome of this test.
Result: 0.0

Request: GET /call?item= COCC(C)OC(=O)c1c(N)n(CCCN2CCOCC2)c2nc3ccccc3nc12 (stereo unspecified) returns the recorded outcome of this test.
Result: 0.0

Request: GET /call?item= Oc1ccc(CNc2ccccc2O)cc1 returns the recorded outcome of this test.
Result: 0.0

Request: GET /call?item= CC(=O)N1CCN(CC(=O)Nc2ccc(C)c(F)c2)CC1 returns the recorded outcome of this test.
Result: 0.0

Request: GET /call?item= Cn1c(-c2ccco2)nc2cc3ccccc3cc21 returns the recorded outcome of this test.
Result: 0.0

Request: GET /call?item= CC1CCCCN1C(=O)CCS(=O)(=O)Cc1ccccc1 (stereo unspecified) returns the recorded outcome of this test.
Result: 0.0

Request: GET /call?item= Cc1ccc(Nc2nc(Cl)c(C=O)s2)cc1 returns the recorded outcome of this test.
Result: 0.0

Request: GET /call?item= CC(=O)Nc1ccc(S(=O)(=O)Nc2cc(C)cn(Cc3ccc(C)cc3)c2=O)cc1 returns the recorded outcome of this test.
Result: 0.0

Request: GET /call?item= CCCCCC(=O)Nc1ccc(-c2cn3cccnc3n2)cc1 returns the recorded outcome of this test.
Result: 1.0
